# Target Of Assay: T1, TNFR1 (Homo sapiens, UniProt P19438)
# T1 chain: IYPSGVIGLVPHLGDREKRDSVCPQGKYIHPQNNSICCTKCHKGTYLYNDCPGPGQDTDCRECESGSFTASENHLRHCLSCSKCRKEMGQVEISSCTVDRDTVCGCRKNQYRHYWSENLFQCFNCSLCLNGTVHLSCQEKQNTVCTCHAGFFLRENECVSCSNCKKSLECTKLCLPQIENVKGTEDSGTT
# Assay Overview: yeast display SC50
Property Measured: apparent Kd (screen)
Express the reported value numerically, then name its unit.

{"columns": ["Binder", "apparent Kd (screen)"],
 "data": [
  ["R92H (designed binder) MTLQELLREEALRRAEAEAFRYALELLAEKFPEQKEYLLDLAEEIESQIRSLSGVDVEDVRKFLDKEWAWVKELLAEHPAELAEVEAARAAHLAELRAEVEAKVAA", "0.869 nM"]
]}

Problem: # lookup: apparent Kd (screen) of L96E (designed binder) MTLQELLREEALRRAEAEAFRYALELLAEKFPEQKEYLLDLAEEIESQIRSLSGVDVEDVRKFLDKEWAWVKELLAEHPAELAEVEAARAARLAEERAEVEAKVAA
Solution: 0.446 nM

// data source = paper PMC12416549
